readout-kind: melting point (°C)
# value in °C; strip the unit string

Query: Would you mind telling me what melting point value was observed for Cc1cn(-c2ccc3n(c2=O)CCN(Cc2cccc(N4CCCCC4)c2C)C3=O)cn1 ?
Response: 207.8

Query: Please answer likewise for Cc1cn(-c2ccc3n(c2=O)CCN(CCc2ccc(Cl)cc2)C3=O)cn1
Response: 184.4

Query: Please answer likewise for Cc1cn(-c2ccc3n(c2=O)C[C@@H](C)N(Cc2ccccc2C)C3=O)cn1
Response: 163

Query: Please answer likewise for Cc1cn(-c2ccc3n(c2=O)CCN(CCC2CCCCC2)C3=O)cn1
Response: 192.6

---

biological target: γ-secretase (Homo sapiens); construct: endogenous in cells; host or cells: SKNBE2 human neuroblastoma cells (carrying hAPP 695 wild type as substrate); assay: Screening for γ-secretase-modulating activity: Aβtotal in supernatant of SKNBE2 cells carrying hAPP 695 wild type (Alphalisa); type: cell-based; settings: SKNBE2 human neuroblastoma cells carrying hAPP 695 wild type, overnight incubation, Aβtotal in cell supernatant
readout-kind: IC50

Query: Lab request: please report IC50 under test system γ-secretase (Homo sapiens) for Cc1cn(-c2ccc3n(c2=O)CCN(C2CCc4c2cccc4C(F)(F)F)C3=O)cn1 (stereo not drawn)
Response: > 10 µM

Query: Please answer likewise for Cc1cn(-c2ccc3n(c2=O)CCN(c2cccc(C(F)(F)F)c2C)C3=O)cn1
Response: > 10 µM

Query: Please answer likewise for Cc1cn(-c2ccc3n(c2=O)CC(C)N(C(C)c2cn(C)c4ccc(C(F)(F)F)cc24)C3=O)cn1 (single isomer, unassigned) [compound 214]
Response: 6.46 µM

Query: Please answer likewise for CCn1cc(C(C)N2C(=O)c3ccc(-n4cnc(C)c4)c(=O)n3CC2C)c2cc(Cl)ccc21 (single isomer, unassigned) [compound 243]
Response: 2 µM

Query: Please answer likewise for COCC(c1cc(C(F)(F)F)cc(C(F)(F)F)c1)N1CCn2c(ccc(-n3cnc(C)c3)c2=O)C1=O (stereo not drawn)
Response: > 10 µM

Query: Please answer likewise for Cc1cn(-c2ccc3n(c2=O)C[C@@H](C)N(Cc2cn(C)c4ccc(OC(F)(F)F)cc24)C3=O)cn1
Response: 5 µM

Query: Please answer likewise for Cc1cn(-c2ccc3n(c2=O)CCN(Cc2cccc(C(F)(F)F)c2F)C3=O)cn1
Response: > 10 µM

Query: Please answer likewise for CCc1cn(-c2ccc3n(c2=O)CC(CN(C)C)N(Cc2cc(C(F)(F)F)cc(C(F)(F)F)c2)C3=O)cn1 (stereo not drawn)
Response: > 10 µM

Query: Please answer likewise for Cc1cn(-c2ccc3n(c2=O)C[C@@H](C)N(Cc2cn(C)c4cc(F)c(Cl)cc24)C3=O)cn1
Response: 7.41 µM

Query: Please answer likewise for Cc1cn(-c2ccc3n(c2=O)C[C@@H](C)N(Cc2cccc(N4CCCCC4)c2)C3=O)cn1
Response: > 10 µM

Query: Please answer likewise for Cc1cn(-c2ccc3n(c2=O)CCN(Cc2cccc(-c4ccccc4)c2)C3=O)cn1
Response: > 10 µM

Query: Please answer likewise for Cc1cn(-c2ccc3n(c2=O)C[C@@H](C)N(CCc2cc(C(F)(F)F)ccc2F)C3=O)cn1
Response: > 10 µM

Query: Please answer likewise for Cc1cn(-c2ccc3n(c2=O)CCN(Cc2ccc4c(c2)OCCCO4)C3=O)cn1
Response: > 10 µM

Query: Please answer likewise for Cc1cn(-c2ccc3n(c2=O)CCN(C2CCCc4ccc(C(F)(F)F)cc42)C3=O)cn1 (stereo not drawn)
Response: > 10 µM

Query: Please answer likewise for Cc1cn(-c2ccc3n(c2=O)C(C)C(C)N(Cc2cc(C(F)(F)F)cc(C(F)(F)F)c2)C3=O)cn1 (single isomer, unassigned) [14b]
Response: > 10 µM

Values were extracted from patent US20150141411A1.
